# credit: paper PMC9482650

# assay-system: T1, LIN7B, Q9HAP6
# T1 sequence (Q9HAP6 88-185, limits assumed, looked up): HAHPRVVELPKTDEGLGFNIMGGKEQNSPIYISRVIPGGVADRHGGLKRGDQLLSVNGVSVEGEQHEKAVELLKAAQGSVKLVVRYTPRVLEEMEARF
# assay-protocol: holdup assay
# Design: key: below the threshold = too weak to quantify, mostly under pKd 3.1 to 4
# experimental-conditions: plain residues with an end cap or a label only (N-terminal biotin on a linker: ttds)
Exercise: for every item that follows, state its recorded pKd.
Give bare numbers.

Examples with answers:
{"binder": "RLPKIKETTV [FRMPD4, Q14CM0]", "assay-value": 4.52}
{"binder": "EVVHTPETSV [SLC16A3, O15427]", "assay-value": 3.61}
{"binder": "RHTTSTETAV [HPV30-E6, P36809]", "assay-value": 3.71}

Moving on to another binder below.
Entry PVRVCEETSL [OTULIN, Q96BN8] , pKd reported as 3.85
